B1: POU domain, class 4, transcription factor 2, residues 256 to 327; numbered along this chain, Q12837 (parent)
chain: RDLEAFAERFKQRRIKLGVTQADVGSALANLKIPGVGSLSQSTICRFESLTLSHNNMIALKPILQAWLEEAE

- Variants of: B1
- ASSAY COMMENT: abundance fitness (aPCA) (normalised: wild type 0, dead -1); higher = more abundant; growth selection in yeast, the domain comes from the species named
- SETUP CONDITIONS: Homo sapiens
Assign abundance fitness to each entry below.
Numbers only.

Q21Y :: -0.194

For each entry beneath this line, provide reported abundance fitness.
1. K61H
2. K32L
3. S49F
4. S49H

Return:
1: -0.137; 2: -0.279; 3: -0.651; 4: -0.587
